Would you kindly list binding signal for each of these binders?
# Test System: T1, RBFOX1 RRM RbFoxmut (Fox-RRM*) (Homo sapiens, UniProt Q9NWB1 109-208, R118D;E147R;N151S;E152T)
# T1 sequence: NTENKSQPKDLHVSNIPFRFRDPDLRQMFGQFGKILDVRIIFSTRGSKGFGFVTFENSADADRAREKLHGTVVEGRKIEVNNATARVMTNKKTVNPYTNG
# Procedure Text: EMSA; HiTS-Eq, 1 nM pool, 10 min; buffer printed only for the single-RNA assays: 10 mM Tris pH 7.5, 150 mM NaCl, 3.4 mM EDTA, 0.001% NP-40, 30 C
# Condition Summary: tags: His6 N-terminal (pET28a); label: 5' 32P
The full ranking holds about 16,000 sequences; the median of “ka relative to ugcaugu” is about 0.096, and the highest 2% start at about 0.35. What follows is part of a selection rich in the highest values, with near analogues and random picks from the rest.

Challenge: Request the reported binding signal associated with GUCGGUA (DNA:RNA) RNA: GGGAGACCGGAAUUCAGAUUGUCCGUCGGUAUUAAAUCCCGUCGUAGCCACCA DNA 1: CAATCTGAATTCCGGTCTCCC DNA 2: TGGTGGCTACGACGGGATT
Response given: 0.2 KA relative to UGCAUGU

Challenge: Request the reported binding signal associated with ACGUAGC (DNA:RNA) RNA: GGGAGACCGGAAUUCAGAUUGUCCACGUAGCUUAAAUCCCGUCGUAGCCACCA DNA 1: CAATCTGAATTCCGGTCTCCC DNA 2: TGGTGGCTACGACGGGATT
Response given: 0.122 KA relative to UGCAUGU
